Values from ChEMBL document CHEMBL1133867

Listing of recorded clearance by entry.
- test: Clearance in rat.
- Type: ADME, organism-based
- measurement-setup: in vivo

{"compound": "C=CCN(C(=O)OCc1ccc([N+](=O)[O-])cc1)C1CCN(CCC(Cn2cnc3ccccc32)c2ccccc2)CC1 (configuration not stated)", "unit-text": "L/h/kg", "clearance": 2.94}
{"compound": "C=CCN(C(=O)OCc1ccccc1)C1CCN(CCC(C)(CN2C(=O)N[C@H](Cc3c[nH]c4ccccc34)C2=O)c2ccccc2)CC1 (some centres not stated)", "unit-text": "L/h/kg", "clearance": 5.04}

====

- tested-target: UniProt P51677
- Sequence (P51677 whole entry): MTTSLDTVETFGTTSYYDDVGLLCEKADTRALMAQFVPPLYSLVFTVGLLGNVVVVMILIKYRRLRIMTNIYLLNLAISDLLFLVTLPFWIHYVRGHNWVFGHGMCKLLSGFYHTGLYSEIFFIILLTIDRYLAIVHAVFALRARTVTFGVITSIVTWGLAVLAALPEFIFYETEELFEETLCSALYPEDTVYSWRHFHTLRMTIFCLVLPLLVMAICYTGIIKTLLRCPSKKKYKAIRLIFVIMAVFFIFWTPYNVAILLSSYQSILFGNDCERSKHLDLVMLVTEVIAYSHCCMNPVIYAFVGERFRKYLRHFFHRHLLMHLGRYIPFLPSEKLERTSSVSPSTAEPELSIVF
- test: Compound was evaluated for its inhibitory activity against C-C chemokine receptor type 3
pIC50: −log10 of the molar value.

{"molecule": "C=CCN(C(=O)OCc1ccc([N+](=O)[O-])cc1)C1CCN(CCC(Cn2c(CC)nc3ccccc32)c2ccccc2)CC1 (stereo unspecified)", "tested-target": "UniProt P51677", "pIC50": "< 6.00"}

====

- test: Oral bioavailability in rat
- Format: ADME, organism-based
- measurement-setup: in vivo

{"molecule": "C=CCN(C(=O)OCc1ccc([N+](=O)[O-])cc1)C1CCN(CCC(Cn2cnc3ccccc32)c2ccccc2)CC1 (configuration not stated)", "bioavailability [%]": 14}
{"molecule": "C=CCN(C(=O)OCc1ccccc1)C1CCN(CCC(C)(CN2C(=O)N[C@H](Cc3c[nH]c4ccccc34)C2=O)c2ccccc2)CC1 (some centres not stated)", "bioavailability [%]": 1}

====

- tested-target: C-C chemokine receptor type 5 (Homo sapiens, UniProt P51681)
- Sequence (P51681 whole entry): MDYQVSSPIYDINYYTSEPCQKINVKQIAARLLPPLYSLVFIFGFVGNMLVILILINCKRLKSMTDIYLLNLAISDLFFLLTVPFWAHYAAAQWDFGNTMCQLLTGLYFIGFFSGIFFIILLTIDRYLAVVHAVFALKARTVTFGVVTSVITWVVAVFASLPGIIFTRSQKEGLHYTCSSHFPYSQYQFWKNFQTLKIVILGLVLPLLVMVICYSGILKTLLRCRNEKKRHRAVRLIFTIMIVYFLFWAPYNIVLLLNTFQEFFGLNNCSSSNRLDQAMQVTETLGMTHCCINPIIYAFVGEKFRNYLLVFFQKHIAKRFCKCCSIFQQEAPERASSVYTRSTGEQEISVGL
- test: Binding affinity against C-C chemokine receptor type 5 stably expressed in Chinese hamster ovary (CHO) cells using [125I]-MIP-1 alpha as the radioligand
- Format: cell-based
Returns: string. Value is Yes if measured IC50 is below 20 nM, and No if it is greater than or equal to it.

{"molecule": "C=CCN(C(=O)OCc1ccc([N+](=O)[O-])cc1)C1CCN(CCC(Cn2cncn2)c2ccccc2)CC1 (configuration not stated)", "label-value": "No"}
{"molecule": "C=CCN(C(=O)OCc1ccccc1)C1CCN(CCC(C)(c2ccccc2)C2Nc3ccccc3S(=O)(=O)N2)CC1 (stereo in doubt)", "label-value": "Yes"}
{"molecule": "C=CCN(C(=O)OCc1ccccc1)C1CCN(CCC(C)(c2ccccc2)C2Nc3ccccc3S(=O)(=O)N2)CC1 (single isomer, unassigned)", "label-value": "No"}
{"molecule": "C=CCN(C(=O)OCc1ccc([N+](=O)[O-])cc1)C1CCN(CCC(C)(c2ccccc2)C2c3ccccc3C(=O)N2CC)CC1 (single isomer, unassigned; form 2)", "label-value": "Yes"}
{"molecule": "C=CCN(C(=O)OCc1ccc([N+](=O)[O-])cc1)C1CCN(CCC(Cn2nnc(-c3ccccc3)n2)c2ccccc2)CC1 (configuration not stated)", "label-value": "No"}
{"molecule": "C=CCN(C(=O)OCc1ccc([N+](=O)[O-])cc1)C1CCN(CCC(Cn2cnc(Cl)c2Cl)c2ccccc2)CC1 (configuration not stated)", "label-value": "Yes"}
{"molecule": "C=CCN(C(=O)OCc1ccc([N+](=O)[O-])cc1)C1CCN(CCC(C)(c2ccccc2)C2c3ccccc3C(=O)N2CC)CC1 (single isomer, unassigned; form 1)", "label-value": "Yes"}
